- targetOrSystem: Carboxy-terminal domain RNA polymerase II polypeptide A small phosphatase 1 (Homo sapiens)
- Sequence (Q9GZU7 whole entry, the tested form may be a part): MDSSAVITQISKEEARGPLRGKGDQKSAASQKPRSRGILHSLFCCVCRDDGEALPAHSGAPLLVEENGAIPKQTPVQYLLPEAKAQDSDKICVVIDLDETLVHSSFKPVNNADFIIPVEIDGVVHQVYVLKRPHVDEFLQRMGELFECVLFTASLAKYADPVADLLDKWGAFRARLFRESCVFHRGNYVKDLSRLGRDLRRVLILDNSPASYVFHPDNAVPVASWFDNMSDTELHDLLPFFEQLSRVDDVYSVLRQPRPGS
- assayNotes: inhibitors of CTDSP1, concentration-response testing, biochemical assay, absorbance-based, actives from ultra-high-throughput screening (AID 540297)
- Format: functional
Active and inactive are the calls of the source. No stated cut-off is given here; in the data, actives have a measured IC50 and inactives only a lower limit.
// values below are reported IC50

Solved cases (3 shown):
molecule	IC50
CCCCCN1CC(=O)C(c2nc(-c3ccc(Cl)cc3)cs2)=C1N	5.38 µM (active)
O=C(N/N=C/c1cccn1-c1cccc(C(=O)O)c1)Nc1ccccc1	8.69 µM (active)
C=CCn1/c(=N/C(=O)c2sc3ccccc3c2Cl)sc2cc(S(N)(=O)=O)ccc21	4.39 µM (active)

Q: Name the reported IC50 value associated with the molecule Cc1ccc(-n2c(=O)c3cc4c(=O)n(-c5ccc(C)c(C)c5)c(=O)c4c(C(=O)c4ccc(C(=O)O)cc4)c3c2=O)cc1C
Result: 1.12 µM (active)

Q: Field request: IC50 | item: CCOC(=O)C1=C(C)N=c2s/c(=C\c3cccc(OCC(=O)O)c3)c(=O)n2C1c1ccccc1OC (stereo unspecified)
Result: 4.32 µM (active)

Q: Quick one: IC50 for CSc1nc2nccc(-c3ccc(Cl)cc3)n2n1 ?
Result: 11.3 µM (active)
